The origin of these recorded values is ChEMBL document CHEMBL2331512.

# measurement_notes: Mean residence time in CD1 mouse at 20 mg/kg, po by LCMS/MS analysis
# Assay type: ADME, organism-based
# Parameters: dose 20 mg/kg, route oral
# run_parameters: in vivo
measurement_label: MRT (h)
One number for each entry, in h.

Consider the reported MRT for these molecules:
* CC(C)=CCC12OC(C)(C)[C@@H]3C[C@@H](C=C4C(=O)c5c(O)cccc5O[C@]431)C2=O | 0.947
* CC(C)=CCC12OC[C@@H]3[C@@H](CN4CCN(C)CC4)[C@@H](C=C4C(=O)c5c(O)cccc5O[C@]431)C2=O | 1.63
* CC(C)=CCc1c(O)cc(O)c2c1O[C@@]13C(=C[C@H]4C(=O)C1(CC=C(C)C)OC[C@@H]3[C@H]4CN1CCN(c3ccccc3)CC1)C2=O | 2.28

Next molecule, MRT to be filled in.
Request: Indicate its recorded MRT; the molecule in question is `CC(C)=CCC[C@]1(C)C=Cc2c(O)c3c(c(CC=C(C)C)c2O1)O[C@]12C(=C[C@@H]4C[C@H]1C(C)(C)O[C@@]2(C/C=C(/C)C(=O)O)C4=O)C3=O`
Result: 4.51
